Provide the recorded EC50 (nM) in the Presence of 1 µg/mL hIL-18BP-hFc, hIL-18 reporter assay for the entries that follow.
Test System: T1, hIL-18BP-hFc (human, UniProt O95998 31-194, limits assumed)
T1 sequence (looked up): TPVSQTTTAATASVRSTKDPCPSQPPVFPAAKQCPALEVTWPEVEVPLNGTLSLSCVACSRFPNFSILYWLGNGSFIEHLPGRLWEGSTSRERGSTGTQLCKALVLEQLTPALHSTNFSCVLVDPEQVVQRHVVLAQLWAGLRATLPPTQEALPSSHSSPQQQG
Experimental Details: cell-based or functional assay
Give me the value, and tack the unit on after it.

Requested read-out: EC50 (nM) in the Presence of 1 µg/mL hIL-18BP-hFc, hIL-18 reporter assay. Entry: IL-18 variant polypeptide M29 (ligand) YFPKLMSKLSVIRNLNDQVLFIDQGNRPLFEDMTDSDCRDNAPRTIFIISMYKFSDRRGMAVTISVKCEKISTLSCENKIISFKEMNPPDPIKDTKSDIIFFQRSVPGHDNKMQFESSSYEGYFLACEKERDLFKLILKKEDELGDRSIMFTVQNED
1.9 nM

Bench note: what EC50 (nM) in the Presence of 1 µg/mL hIL-18BP-hFc, hIL-18 reporter assay did IL-18 variant polypeptide LM1 (ligand) YFPKLKSKLSVIRNLNDQVLFIDQGNRPLFEDMTDSDCRDNAPRTIFIISMYKGSGARGMAVTISVKCEKISTLSCENKIISFKEMNPPDNIKDTKSDIIFFQRSVPGHDNKMQFESSSYEGYFLACEKERDLFKLILKKEDELGDRSIMFTVQNED show?
0.11 nM

Requested read-out: EC50 (nM) in the Presence of 1 µg/mL hIL-18BP-hFc, hIL-18 reporter assay. Entry: IL-18 variant polypeptide MM4 (ligand) YFPKLRSKLSVIRNLNDQVLFIDQGNRPLFEDMTDSDCRDNAPRTIFIISMYKLSTIRGMAVTISVKCEKISTLSCENKIISFKEMNPPDGIKDTKSDIIFFQRSVPGHDNKMQFESSSYEGYFLACEKERDLFKLILKKEDELGDRSIMFTVQNED
0.43 nM

Which EC50 (nM) in the Presence of 1 µg/mL hIL-18BP-hFc, hIL-18 reporter assay reading was recorded for the binder IL-18 variant polypeptide M26 (ligand) YFPKLRSKLSVIRNLNDQVLFIDQGNRPLFEDMTDSDCRDNAPRTIFIISMYKHSDKRGMAVTISVKCEKISTLSCENKIISFKEMNPPDVIKDTKSDIIFFQYSVPGHDNKMQFESSSYEGYFLACEKERDLFKLILKKEDELGDRSIMFTVQNED ?
0.094 nM

What does the record list as EC50 (nM) in the Presence of 1 µg/mL hIL-18BP-hFc, hIL-18 reporter assay for IL-18 variant polypeptide M39 (ligand) YFPKLRSKLSVIRNLNDQVLFIDQGNRPLFEDMTDSDCRDNAPRTIFIISMYKWSPGRGMAVTISVKCEKISTLSCENKIISFKEMNPPDVIKDTKSDIIFFQLSVPGHDNKMQFESSSYEGYFLACEKERDLFKLILKKEDELGDRSIMFTVQNED ?
0.44 nM

Tell me the measured EC50 (nM) in the Presence of 1 µg/mL hIL-18BP-hFc, hIL-18 reporter assay of IL-18 variant polypeptide MM1 (ligand) YFPKLKSKLSVIRNLNDQVLFIDQGNRPLFEDMTDSDCRDNAPRTIFIISMYKLSTQRGMAVTISVKCEKISTLSCENKIISFKEMNPPDVIKDTKSDIIFFQRSVPGHDNKMQFESSSYEGYFLACEKERDLFKLILKKEDELGDRSIMFTVQNED , please.
0.81 nM

Requested field: EC50 (nM) in the Presence of 1 µg/mL hIL-18BP-hFc, hIL-18 reporter assay. Item: IL-18 variant polypeptide WM8 (ligand) YFPKLRSKLSVIRNLNDQVLFIDQGNRPLFEDMTDSDCRDNAPRTIFIISMYKDSQPRGMAVTISVKCEKISTLSCENKIISFKEMNPPDSIKDTKSDIIFFQRSVPGHDNKMQFESSSYEGYFLACEKERDLFKLILKKEDELGDRSIMFTVQNED
5.2 nM

Can you look up the measured EC50 (nM) in the Presence of 1 µg/mL hIL-18BP-hFc, hIL-18 reporter assay of IL-18 variant polypeptide WM2 (ligand) YFPKLRSKLSVIRNLNDQVLFIDQGNRPLFEDMTDSDCRDNAPRTIFIISMYKDSQPRGMAVTISVKCEKISTLSCENKIISFKEMNPPDNIKDTESDIIFFQRSVPGHDNKMQFESSSYEGYFLACEKERDLFKLILKKEDELGDRSIMFTVQNED for me?
14.2 nM
